study-target: human RXFP1 (Homo sapiens)
Sequence (Q9HBX9 1-757): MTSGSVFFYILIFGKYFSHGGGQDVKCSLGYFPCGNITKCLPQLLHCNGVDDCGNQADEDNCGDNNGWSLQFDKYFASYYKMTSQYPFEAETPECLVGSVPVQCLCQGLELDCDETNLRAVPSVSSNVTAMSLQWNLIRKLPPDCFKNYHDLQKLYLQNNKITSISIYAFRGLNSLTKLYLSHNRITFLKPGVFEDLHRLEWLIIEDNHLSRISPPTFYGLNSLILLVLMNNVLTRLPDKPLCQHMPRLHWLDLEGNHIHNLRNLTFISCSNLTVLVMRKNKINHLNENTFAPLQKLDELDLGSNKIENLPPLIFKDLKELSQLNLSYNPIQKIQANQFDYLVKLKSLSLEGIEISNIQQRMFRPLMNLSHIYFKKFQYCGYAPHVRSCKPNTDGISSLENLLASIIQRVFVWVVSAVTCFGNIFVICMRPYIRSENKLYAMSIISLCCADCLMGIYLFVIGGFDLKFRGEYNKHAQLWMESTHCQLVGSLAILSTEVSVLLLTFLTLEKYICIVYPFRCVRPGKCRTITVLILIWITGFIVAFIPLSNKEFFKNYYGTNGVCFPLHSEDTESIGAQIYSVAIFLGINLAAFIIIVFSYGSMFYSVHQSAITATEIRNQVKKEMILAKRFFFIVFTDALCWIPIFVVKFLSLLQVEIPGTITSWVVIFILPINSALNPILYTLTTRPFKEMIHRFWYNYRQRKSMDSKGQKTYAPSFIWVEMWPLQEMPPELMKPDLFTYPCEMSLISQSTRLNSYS
protocol-description: human RXFP1 (hRXFP1) HEK293 cAMP assay (HTRF)
experimental-conditions: HEK293 cells stably expressing human RXFP1, 30 min at room temperature
Exercise: state measured log10(EC50) for each of the compounds provided.
log10 EC50, nM

[[record]]
compound = "COc1ncc(-c2cc([C@H](O)C(F)(F)F)ccc2F)nc1C(=O)N[C@@H]1C2CCC(/C2=C/C(F)(F)F)[C@@H]1C(=O)Nc1ccc(F)c(C(F)(F)F)c1 (some centres unmarked)"
endpoint = "log10(EC50)"
experimental_value = 3.48

[[record]]
compound = "COc1ncc(C2=NOC3CC(C(O)C(F)(F)F)CC23)cc1C(=O)N[C@H]1[C@@H](C(=O)Nc2ccc(F)c(C(F)(F)F)c2)[C@H]2CC[C@@H]1/C2=C\\C(C)C (some centres unmarked)"
endpoint = "log10(EC50)"
experimental_value = 0.63

[[record]]
compound = "COc1ncc(C2=NOC3CC(C(OC(=O)Nc4ccccc4)C(F)(F)F)CC23)cc1C(=O)N[C@H]1[C@@H](C(=O)Nc2ccc(F)c(C(F)(F)F)c2)[C@H]2CC[C@@H]1/C2=C\\C1CCCC1 (some centres unmarked)"
endpoint = "log10(EC50)"
experimental_value = 0.28

[[record]]
compound = "COc1cnccc1C(=O)N[C@@H]1C2CCC(C2=C(C)C)[C@@H]1C(=O)Nc1ccc(F)c(C(F)(F)F)c1 (some centres unmarked)"
endpoint = "log10(EC50)"
experimental_value = 3.04


We now examine a further compound.
Ask: What log10(EC50) appears in the records for this compound with human RXFP1 (Homo sapiens)? COc1ncc(C2=NOC3CC(O)CC23)cc1C(=O)N[C@H]1[C@@H](C(=O)Nc2ccc(F)c(C(F)(F)F)c2)[C@H]2CC[C@@H]1/C2=C\C1CCC1 (some centres unmarked)
Result: 0.54

---

study-target: human RXFP1 (Homo sapiens)
Construct: expressed in transfected cells
protocol-description: human RXFP1 (hRXFP1) HEK293 cAMP assay (HTRF)
Format: cell-based
experimental-conditions: HEK293 cells stably expressing human RXFP1, 30 min at room temperature
endpoint: EC50 (nM)
One number for each entry, in nM.

# example entries with known answers
[[record]]
compound = "COc1ncc(-c2ccc(C(=O)O)cc2)cc1C(=O)N[C@@H]1C2CCC(C2=C(C)C)[C@@H]1C(=O)Nc1ccc(F)c(C(F)(F)F)c1 (stereo partly drawn)"
experimental_value = 250

[[record]]
compound = "COCCn1cc(OC)c(C(=O)N[C@@H]2C3CCC(/C3=C/C3CC3)[C@@H]2C(=O)Nc2ccc(F)c(C(F)(F)F)c2)n1 (stereo partly drawn)"
experimental_value = 230


We now examine a further compound.
Ask: What does the data say about its EC50? Entry: Cn1c(=O)c(C(=O)N[C@@H]2C3CCC(/C3=C/C3CC3)[C@@H]2C(=O)Nc2ccc(F)c(C(F)(F)F)c2)cc2ccccc21 (stereo partly drawn)
Result: 4000

---

study-target: UniProtKB Q9HBX9
protocol-description: human RXFP1 (hRXFP1) HEK293 cAMP assay (HTRF)
experimental-conditions: HEK293 cells stably expressing human RXFP1, 30 min at room temperature
Param label: returns TRUE when EC50 < 200 nM, returns FALSE otherwise, including exact equality.

[[record]]
compound = "O=C(N[C@@H]1C2CCC(/C2=C/C(F)(F)F)[C@@H]1C(=O)Nc1ccc(F)c(C(F)(F)F)c1)c1nc(Br)cnc1OCCO (some centres unmarked) [Example 48]"
assigned_label = "FALSE"

[[record]]
compound = "COc1ncc(C2=NOC3CC(C(OC(=O)NC4CCC4)C4CC4)CC23)cc1C(=O)N[C@@H]1C2CCC(/C2=C/C2CC(F)(F)C2)[C@@H]1C(=O)Nc1ccc(F)c(C(F)(F)F)c1 (some centres unmarked) [Example 161]"
assigned_label = "TRUE"

[[record]]
compound = "COc1cnc(C2=NOC3COCC23)cc1C(=O)N[C@H]1[C@@H](C(=O)Nc2ccc(F)c(C(F)(F)F)c2)[C@H]2CC[C@@H]1/C2=C\\C1CC1 (single isomer, unassigned) [Example 72]"
assigned_label = "TRUE"

[[record]]
compound = "COc1ncc(C2=NO[C@@H]3C[C@H](CO)CN23)cc1C(=O)N[C@@H]1C2CCC(/C2=C/C2CCCC2)[C@@H]1C(=O)Nc1ccc(F)c(C(F)(F)F)c1 (some centres unmarked) [Example 133]"
assigned_label = "TRUE"


Switching to the query record.
Ask: EC50 strictly < 200 nM for this compound? COc1cnc(-c2cc([C@H](OC(=O)Nc3ccccc3)C(F)(F)F)ccc2F)nc1C(=O)N[C@@H]1C2CCC(/C2=C/C(F)(F)F)[C@@H]1C(=O)Nc1ccc(F)c(C(F)(F)F)c1 (some centres unmarked) [Example 36]
Result: TRUE

---

study-target: human RXFP1 (Homo sapiens, UniProt Q9HBX9)
Sequence (Q9HBX9 1-757): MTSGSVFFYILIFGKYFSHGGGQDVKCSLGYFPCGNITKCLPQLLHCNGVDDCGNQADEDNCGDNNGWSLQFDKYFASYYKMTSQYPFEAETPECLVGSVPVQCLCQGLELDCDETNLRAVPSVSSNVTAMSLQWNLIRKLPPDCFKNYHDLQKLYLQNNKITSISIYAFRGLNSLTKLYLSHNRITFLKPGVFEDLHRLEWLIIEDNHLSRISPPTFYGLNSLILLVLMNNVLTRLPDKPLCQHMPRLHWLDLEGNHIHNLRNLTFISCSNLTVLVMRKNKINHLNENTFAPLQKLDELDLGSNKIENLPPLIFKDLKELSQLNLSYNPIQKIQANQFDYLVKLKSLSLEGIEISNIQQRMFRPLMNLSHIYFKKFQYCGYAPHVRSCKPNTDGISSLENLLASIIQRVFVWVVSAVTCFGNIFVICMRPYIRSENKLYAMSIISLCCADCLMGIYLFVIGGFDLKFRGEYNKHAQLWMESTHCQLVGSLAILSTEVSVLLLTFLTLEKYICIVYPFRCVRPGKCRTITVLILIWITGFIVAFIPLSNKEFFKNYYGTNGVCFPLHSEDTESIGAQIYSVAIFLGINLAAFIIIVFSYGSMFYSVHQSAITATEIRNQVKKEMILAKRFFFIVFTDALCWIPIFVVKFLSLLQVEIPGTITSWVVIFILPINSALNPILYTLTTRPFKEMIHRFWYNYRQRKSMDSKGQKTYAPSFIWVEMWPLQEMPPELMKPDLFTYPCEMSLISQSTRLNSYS
protocol-description: human RXFP1 (hRXFP1) HEK293 cAMP assay (HTRF)
experimental-conditions: HEK293 cells stably expressing human RXFP1, 30 min at room temperature
Exercise: state measured EC50 for each of the compounds provided.
Be sure to follow the number with its unit.

State recorded EC50 for all listed compounds.
1. COc1ncc(C(=O)N2CC(O)C2)cc1C(=O)N[C@H]1[C@@H](C(=O)Nc2ccc(F)c(C(F)(F)F)c2)[C@H]2CC[C@@H]1/C2=C\C1CC1 [Example 75]
2. COc1ncc(C2=NOC3CC(C(OC(=O)Nc4ccccc4)C4CC4)CC23)cc1C(=O)N[C@@H]1C2CCC(/C2=C/C2CC(F)(F)C2)[C@@H]1C(=O)Nc1ccc(F)c(C(F)(F)F)c1 (stereo partly shown) [Example 160]
3. Cn1c(=O)c(C(=O)N[C@@H]2C3CCC(/C3=C/C(F)(F)F)[C@@H]2C(=O)Nc2ccc(F)c(C(F)(F)F)c2)cc2ccccc21 (stereo partly shown) [Example 15]
4. COc1cnc(-c2cc([C@H](OC(=O)NC3CCC3)C(F)(F)F)ccc2F)nc1C(=O)N[C@@H]1C2CCC(/C2=C/C(F)(F)F)[C@@H]1C(=O)Nc1ccc(F)c(C(F)(F)F)c1 (stereo partly shown) [Example 37]

Result:
["8.1 nM", "8.4 nM", "3500 nM", "95 nM"]
